- measurement.target: Full length Akt3 (Homo sapiens, UniProt Q9Y243)
- Construct: Full length Akt1 (cat #P2999), Akt2 (cat #PV3184), Akt3 (cat #PV3185); purchased PerkinElmer PV3185
- Sequence (Q9Y243 whole entry): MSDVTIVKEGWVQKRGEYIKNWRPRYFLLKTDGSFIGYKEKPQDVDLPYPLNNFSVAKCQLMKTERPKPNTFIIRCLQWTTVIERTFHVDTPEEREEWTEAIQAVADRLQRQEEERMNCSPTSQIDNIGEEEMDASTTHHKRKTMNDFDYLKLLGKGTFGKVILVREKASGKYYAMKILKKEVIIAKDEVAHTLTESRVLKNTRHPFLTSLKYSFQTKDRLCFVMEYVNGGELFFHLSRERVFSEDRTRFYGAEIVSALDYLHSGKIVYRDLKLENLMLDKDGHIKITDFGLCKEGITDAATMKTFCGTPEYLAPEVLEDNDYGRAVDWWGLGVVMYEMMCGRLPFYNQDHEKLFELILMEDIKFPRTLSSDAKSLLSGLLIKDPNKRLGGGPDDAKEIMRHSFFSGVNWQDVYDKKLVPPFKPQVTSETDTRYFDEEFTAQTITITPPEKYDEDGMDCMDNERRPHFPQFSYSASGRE
- experimental.details: In vitro Akt kinase enzymatic assay (HTRF), Akt3
- Assay type: biochemical
- cond: 0.6 nM Akt3, substrate solution with 5 mM ATP, 25° C. 1 hr
measured.endpoint: IC50

Missing value: IC50, Full length Akt3 (Homo sapiens, UniProt Q9Y243), entry Cn1ncc(COCC2CC2)c1-c1ccc2c(c1)CN([C@H](CN)Cc1cc(F)cc(F)c1)C2=O [Example 48] . Fill in?
< 500 nM

Missing value: IC50, Full length Akt3 (Homo sapiens, UniProt Q9Y243), entry Cc1cnn(C)c1-c1cc2c(cn1)C(=O)N([C@H](CN)Cc1cccc(F)c1)C2 [Example 94] . Fill in?
< 500 nM

Missing value: IC50, Full length Akt3 (Homo sapiens, UniProt Q9Y243), entry Cn1ncc(Cl)c1-c1ccc2c(c1)CN([C@H](CN)Cc1cscn1)C2=O [Example 69] . Fill in?
500 to 5000 nM

Missing value: IC50, Full length Akt3 (Homo sapiens, UniProt Q9Y243), entry Cn1nccc1-c1cc2c(cn1)C(=O)N([C@H](CN)Cc1cc(F)cc(F)c1)C2 [Example 102] . Fill in?
< 500 nM

Missing value: IC50, Full length Akt3 (Homo sapiens, UniProt Q9Y243), entry Cn1ncc(C#CC(C)(C)O)c1-c1ccc2c(c1)CN([C@H](CN)Cc1cc(F)cc(F)c1)C2=O [Example 54] . Fill in?
< 500 nM

Missing value: IC50, Full length Akt3 (Homo sapiens, UniProt Q9Y243), entry COCc1cnn(C)c1-c1cc2c(cn1)C(=O)N([C@H](CN)Cc1cc(F)cc(F)c1)C2 [Example 105] . Fill in?
< 500 nM

Missing value: IC50, Full length Akt3 (Homo sapiens, UniProt Q9Y243), entry CCn1nccc1-c1ccc2c(c1)CN([C@H](CN)Cc1cccc(F)c1)C2=O [Example 127] . Fill in?
< 500 nM

Missing value: IC50, Full length Akt3 (Homo sapiens, UniProt Q9Y243), entry Cn1nccc1-c1ccc2c(c1)CN([C@H](CN)Cc1cccnc1)C2=O [Example 78] . Fill in?
500 to 5000 nM

----------
pIC50: −log10 of the molar value.
Full length Akt1 (Homo sapiens, UniProt P31749) pIC50 data
Sequence (P31749 whole entry): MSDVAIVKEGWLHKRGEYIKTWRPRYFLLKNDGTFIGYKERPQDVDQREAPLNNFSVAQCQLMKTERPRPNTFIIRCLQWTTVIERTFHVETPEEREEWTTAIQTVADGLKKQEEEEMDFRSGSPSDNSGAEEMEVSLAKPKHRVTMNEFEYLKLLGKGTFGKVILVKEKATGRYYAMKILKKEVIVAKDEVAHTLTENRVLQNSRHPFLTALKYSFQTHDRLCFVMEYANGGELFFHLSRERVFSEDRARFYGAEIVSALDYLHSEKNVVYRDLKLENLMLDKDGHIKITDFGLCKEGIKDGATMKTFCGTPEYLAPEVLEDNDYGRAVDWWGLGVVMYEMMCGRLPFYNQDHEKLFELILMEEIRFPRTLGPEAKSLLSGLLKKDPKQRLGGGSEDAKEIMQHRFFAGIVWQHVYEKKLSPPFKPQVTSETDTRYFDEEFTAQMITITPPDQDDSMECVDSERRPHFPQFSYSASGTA

Missing value: pIC50, Full length Akt1 (Homo sapiens, UniProt P31749), entry Cn1ncc(COC2CCC2)c1-c1cc2c(cn1)C(=O)N([C@H](CN)Cc1cccc(F)c1)C2 [Example 97] . Fill in?
> 6.30

Missing value: pIC50, Full length Akt1 (Homo sapiens, UniProt P31749), entry Cc1cnn(C)c1-c1ccc2c(c1)CN([C@H](CN)Cc1cc(F)cc(F)c1)C2=O [Example 42] . Fill in?
> 6.30

Missing value: pIC50, Full length Akt1 (Homo sapiens, UniProt P31749), entry Cn1nccc1-c1ccc2c(c1)CN(C(CN)c1ccc(F)cc1)C2=O (stereo not shown) [Example 118] . Fill in?
> 6.30

Missing value: pIC50, Full length Akt1 (Homo sapiens, UniProt P31749), entry Cn1ncc(Cl)c1-c1ccc2c(c1)CN(C(CN)c1ccccc1)C2=O (stereo in doubt) [Example 114] . Fill in?
> 6.30

Missing value: pIC50, Full length Akt1 (Homo sapiens, UniProt P31749), entry CC(C)OCc1cnn(C)c1-c1cc2c(cn1)C(=O)N([C@H](CN)Cc1cc(F)cc(F)c1)C2 [Example 106] . Fill in?
> 6.30

Missing value: pIC50, Full length Akt1 (Homo sapiens, UniProt P31749), entry Cn1nccc1-c1cc2c(cn1)C(=O)N([C@H](CN)Cc1cccc(F)c1)C2 [Example 93] . Fill in?
> 6.30

Missing value: pIC50, Full length Akt1 (Homo sapiens, UniProt P31749), entry Cn1ncc(-c2ccc(F)nc2)c1-c1ccc2c(c1)CN([C@H](CN)Cc1cccc(F)c1)C2=O [Example 25] . Fill in?
< 5.30

----------
pIC50 overview
- measurement.target: Full length Akt2 (Homo sapiens, UniProt P31751)
- Construct: Full length Akt1 (cat #P2999), Akt2 (cat #PV3184); purchased PerkinElmer PV3184
- Sequence (P31751 whole entry): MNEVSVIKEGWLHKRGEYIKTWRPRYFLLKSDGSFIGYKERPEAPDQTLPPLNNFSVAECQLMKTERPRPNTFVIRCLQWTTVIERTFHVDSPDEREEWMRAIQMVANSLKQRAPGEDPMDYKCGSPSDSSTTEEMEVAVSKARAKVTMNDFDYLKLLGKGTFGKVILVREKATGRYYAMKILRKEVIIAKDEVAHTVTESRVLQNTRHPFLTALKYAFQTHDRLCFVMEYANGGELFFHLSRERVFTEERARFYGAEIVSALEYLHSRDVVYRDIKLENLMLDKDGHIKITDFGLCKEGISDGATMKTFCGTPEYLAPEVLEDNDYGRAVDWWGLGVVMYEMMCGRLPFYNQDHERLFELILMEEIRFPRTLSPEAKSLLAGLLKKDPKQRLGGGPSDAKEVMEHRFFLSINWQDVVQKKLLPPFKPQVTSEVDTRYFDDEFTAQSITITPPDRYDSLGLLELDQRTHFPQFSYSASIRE
- experimental.details: In vitro Akt kinase enzymatic assay (HTRF), Akt2
- Format: biochemical
- cond: 0.6 nM Akt2, substrate solution with 5 mM ATP, 25° C. 1 hr
- Protocol: Compounds herein were tested for inhibitory activity of Akt targets according to the following in vitro assay. […] The plate was incubated for 15-30 min at room temperature and HTRF (homogenous time resolved fluorescence) was measured on a plate reader. Percentage of inhibition was calculated for each concentration and IC50 value was generated from curve fitting. […]
pIC50: −log10 of the molar value.

| compound | pIC50 |
| --- | --- |
| COc1cccc(C(CN)N2Cc3cc(-c4c(Cl)cnn4C)ccc3C2=O)c1 (stereo not shown) | 5.30 to 6.30 |

Quick check: pIC50 of `Cn1nccc1-c1cnn(C)c1-c1ccc2c(c1)CN([C@H](CN)Cc1cccc(F)c1)C2=O` ?
< 5.30

Quick check: pIC50 of `Cn1ncc(COC2CCC2)c1-c1cc2c(cn1)C(=O)N([C@H](CN)Cc1cccc(F)c1)C2` ?
> 6.30

Quick check: pIC50 of CN(C)CC(c1ccccc1)N1Cc2cc(-c3ccnn3C)ccc2C1=O (stereo not shown) ?
< 5.30

----------
Full length Akt3 (Homo sapiens) IC50 data

The following compounds have reported results that may help.
| structure.as.smiles | measurement.target | IC50 |
| --- | --- | --- |
| Cc1cnn(C)c1-c1ccc2c(c1)CN([C@H](CN)Cc1cc(F)cc(F)c1)C2=O | Full length Akt3 (Homo sapiens) | < 500 nM |
| CC(C)OCc1cnn(C)c1-c1ccc2c(c1)CN([C@H](CN)Cc1cccc(F)c1)C2=O | Full length Akt3 (Homo sapiens) | < 500 nM |

Consider the additional compound presented here.
Missing value: IC50, Full length Akt3 (Homo sapiens), entry `Cn1ncc(Cl)c1-c1ccc2c(c1)CN([C@H](CN)Cc1ccccn1)C2=O` . Fill in?
< 500 nM

----------
Full length Akt2 (Homo sapiens, UniProt P31751) IC50 data

The following molecules have reported results that may help.
| molecule | measurement.target | measured.endpoint | data.value |
| --- | --- | --- | --- |
| Cn1ncc(C#CC(C)(C)O)c1-c1ccc2c(c1)CN([C@H](CN)Cc1cc(F)cc(F)c1)C2=O [Example 54] | Full length Akt2 (Homo sapiens, UniProt P31751) | IC50 | < 500 nM |
| Cn1nccc1-c1ccc2c(n1)CN([C@H](CN)Cc1ccccc1)C2=O [Example 111] | Full length Akt2 (Homo sapiens, UniProt P31751) | IC50 | 500 to 5000 nM |

Consider the additional molecule presented here.
Missing value: IC50, Full length Akt2 (Homo sapiens, UniProt P31751), entry Cn1ncc(Cl)c1-c1ccc2c(n1)CN([C@H](CN)Cc1ccccc1)C2=O [Example 112] . Fill in?
500 to 5000 nM

----------
IC50 overview
- measurement.target: Full length Akt3 (Homo sapiens)
- Construct: Full length Akt1 (cat #P2999), Akt2 (cat #PV3184), Akt3 (cat #PV3185); purchased PerkinElmer PV3185
- experimental.details: In vitro Akt kinase enzymatic assay (HTRF), Akt3
- Format: biochemical
- cond: 0.6 nM Akt3, substrate solution with 5 mM ATP, 25° C. 1 hr

The following compounds have reported results that may help.
| structure.as.smiles | IC50 |
| --- | --- |
| Cn1nccc1-c1ccc2c(c1)CN([C@H](CN)Cc1ccccn1)C2=O | 500 to 5000 nM |
| Cn1ncc(Cl)c1-c1cc2c(cn1)C(=O)N([C@H](CN)CC1CCCCC1)C2 | < 500 nM |

Consider the additional compound presented here.
Quick check: IC50 of `CSCc1cnn(C)c1-c1cc2c(cn1)C(=O)N([C@H](CN)Cc1cccc(F)c1)C2` ?
500 to 5000 nM

----------
pIC50: −log10 of the molar value.
UniProtKB P31749 pIC50 data

The following compounds have reported results that may help.
| compound | measurement.target | pIC50 |
| --- | --- | --- |
| CN(C)CC(c1ccccc1)N1Cc2cc(-c3ccnn3C)ccc2C1=O (stereo not drawn) [Example 115] | UniProtKB P31749 | 5.30 to 6.30 |
| Cn1ncc(Br)c1-c1ccc2c(c1)CN([C@H](CN)Cc1cccc(F)c1)C2=O [Example 12] | UniProtKB P31749 | > 6.30 |
| Cn1ncc(Cl)c1-c1ccc2c(c1)CN([C@H](CN)CC1CC1)C2=O [Example 137] | UniProtKB P31749 | 5.30 to 6.30 |
| COc1cc(C[C@@H](CN)N2Cc3cc(-c4ccnn4C)ccc3C2=O)ccn1 [Example 77] | UniProtKB P31749 | 5.30 to 6.30 |

Missing value: pIC50, UniProtKB P31749, entry Cc1cnn(C)c1-c1ccc2c(c1)CN([C@H](CN)Cc1cccc(F)c1)C2=O [Example 3] . Fill in?
> 6.30

Missing value: pIC50, UniProtKB P31749, entry Cn1ncc(Cl)c1-c1ccc2c(c1)CN([C@H](CN)Cc1ccccc1)C2=O [Example 56] . Fill in?
> 6.30

Missing value: pIC50, UniProtKB P31749, entry Cn1ncc(COC2CCC2)c1-c1cc2c(cn1)C(=O)N([C@H](CN)Cc1cc(F)cc(F)c1)C2 [Example 108] . Fill in?
> 6.30

Missing value: pIC50, UniProtKB P31749, entry CNC[C@H](Cc1cccc(F)c1)N1Cc2cc(-c3c(Cl)cnn3C)ccc2C1=O [Example 30] . Fill in?
> 6.30

Missing value: pIC50, UniProtKB P31749, entry Cn1ncc(Cl)c1-c1ccc2c(c1)CN([C@H](CN)Cc1cc(F)cc(F)c1)C2=O [Example 41] . Fill in?
> 6.30

Missing value: pIC50, UniProtKB P31749, entry Cn1nccc1-c1ccc2c(c1)CN([C@H](CN)Cc1cccc(-c3cccnc3)c1)C2=O [Example 86] . Fill in?
5.30 to 6.30

Missing value: pIC50, UniProtKB P31749, entry Cn1cc(-c2cccc(C[C@@H](CN)N3Cc4cc(-c5c(Cl)cnn5C)ccc4C3=O)c2)cn1 [Example 70] . Fill in?
> 6.30

Missing value: pIC50, UniProtKB P31749, entry Cn1ncc(Cl)c1-c1ccc2c(c1)CN([C@H](CN)Cc1cccc(-c3ccncc3)c1)C2=O [Example 72] . Fill in?
< 5.30

Missing value: pIC50, UniProtKB P31749, entry COc1ncccc1-c1cnn(C)c1-c1ccc2c(c1)CN([C@H](CN)Cc1cccc(F)c1)C2=O [Example 27] . Fill in?
< 5.30

The origin of these recorded values is patent US8895571B2.
